System: PAR-2
Assay: Inhibition of PAR-2 activating peptide (AP2) calcium signaling in cells pretreated with antagonist
Format: cell-based, human
Design: key: AUC of calcium mobilization, treated ÷ control wells
Conditions: mimetic antagonists; AUC of calcium mobilization treated/control; initially screened at 1 mM compound
Protocol: In order to assess the potential of peptides and molecules selected above to block PAR-2 signaling, cells were pretreated with potential antagonist peptides for a predetermined amount of time and were subsequently treated with various GPCR agonists. […] Fluorescence was monitored using a Wallac 1470 fluorescent plate reader. […] Calcium signaling was then measured using a Flexstation II (Molecular Devices) following manufacturer's instructions. […]
Structures can show the parent of a compound that is named as a salt.
recorded_metric: PAR-2 AP2 Signaling Treated/Control
Please give only the number in your answer, with no unit.

PAR-2 AP2 Signaling Treated/Control reading for NCCCCOc1ccc(OCc2ccccc2)cc1 [ENMD-1566, hydrochloride] : 0.01

PAR-2 AP2 Signaling Treated/Control reading for `CC(C)Cn1cccc1C(=O)NCCCCCCN` : 0.91

PAR-2 AP2 Signaling Treated/Control reading for CC(C)CC(=O)Nc1ccc(NC(=O)CCCN)cc1 [ENMD-1397, hydrobromide] : 0.15

PAR-2 AP2 Signaling Treated/Control reading for `NCCCCCC(=O)N[C@@H]1CC[C@H](C(=O)NCC2CCCCC2)C1` : 0.19

PAR-2 AP2 Signaling Treated/Control reading for `NCCCCCCn1cc(CCC2CCCCC2)nn1` : 0.36

PAR-2 AP2 Signaling Treated/Control reading for `CCCCCC(=O)N1CCN(C(=O)CCCCCN)CC1` : 1.34

PAR-2 AP2 Signaling Treated/Control reading for `NCCCCCNc1cnc(C(=O)NCC2CCCCC2)cn1` : 0.90

PAR-2 AP2 Signaling Treated/Control reading for `N=C(N)NCCCCCC(=O)N1CCN(C(=O)Cc2ccccc2)CC1` : 0.80

PAR-2 AP2 Signaling Treated/Control reading for Nc1ccc(CC(=O)N2CC3CN(C(=O)CC4CCCCC4)CC3C2)cc1 (stereo not shown) : 0.64

PAR-2 AP2 Signaling Treated/Control reading for `CC(C)CCC(=O)N1CCN(C(=O)CCCCCN)CC1` : 0.17

PAR-2 AP2 Signaling Treated/Control reading for `COC(=O)CCCCC(=O)N1CCN(C(=O)CC(C)C)CC1` : 0.64

PAR-2 AP2 Signaling Treated/Control reading for Cl.NC1CCC(C(=O)Nc2ccc(NC(=O)CC3CCCCC3)cc2)C1 (stereo in doubt) : 0.10

PAR-2 AP2 Signaling Treated/Control reading for `Cl.NCCCOc1ccc(OCC2CCCCC2)cc1` : 0.08

PAR-2 AP2 Signaling Treated/Control reading for `NCCCCCNC(=O)Cc1csc(NC(=O)CC2CCCCC2)n1` : 0.52

src = patent US20060063930A1
